First Scan Tm listing for selected molecules.
# run-description: Thermal stability of cysteine-NEM conjugates by DSC
# Assay type: physicochemical
# cond: DSC 25-100 °C, 1 °C per minute
Form entry: value (°C) — number only.

{"columns": ["molecule", "First Scan Tm [°C]"],
 "data": [
  ["S10C: cysteine variant of P54AR4-83v2 (SEQ ID NOS: 190 and 228); NEM and VC-MMAF conjugates (conjugate, NEM or vcMMAF conjugate; EGFR binding FN3 domain, NEM and VC-MMAF conjugates) MLPAPKNLVVCEVTEDSARLSWDDPWAFYESFLIQYQESEKVGEAIVLTVPGSERSYDLTGLKPGTEYTVSIYGVHNVYKDTNMRGLPLSAIFTT", 68],
  ["E29C (conjugate, left off: small tags and cut ends) LPAPKNLVVSEVTEDSARLSWDDPWAFYCSFLIQYQESEKVGEAIVLTVPGSERSYDLTGLKPGTEYTVSIYGVHNVYKDTNMRGLPLSAIFTT", 63]
]}

Okay, next one:
Request: Item under review: P63C (conjugate, left off: small tags and cut ends) LPAPKNLVVSEVTEDSARLSWDDPWAFYESFLIQYQESEKVGEAIVLTVPGSERSYDLTGLKCGTEYTVSIYGVHNVYKDTNMRGLPLSAIFTT . Reported First Scan Tm?
Response: 60

Recorded values, source patent US11702475B2.
